measurement-context: in THF, 323.65 K
value-kind: solubility (mole fraction)
Numbers only.

Return reported solubility (mole fraction); argument: `NC(=O)c1ccccc1N`
0.339

###

measurement-context: in ethyl acetate, 319.15 K
value-kind: solubility (mole fraction)
Give bare numbers.

Return reported solubility (mole fraction); argument: `NC(=O)c1ccccc1N`
0.154

###

measurement-context: in n-octanol, 273.15 K
value-kind: solubility (mole fraction)
Numbers only.

Return reported solubility (mole fraction); argument: `NC(=O)c1ccccc1N`
0.0143

###

measurement-context: in methanol, 289.15 K
value-kind: solubility (mole fraction)
Answers are plain numbers.

Return reported solubility (mole fraction); argument: `NC(=O)c1ccccc1N`
0.0798

###

measurement-context: in acetone, 293.35 K
value-kind: solubility (mole fraction)
Give bare numbers.

Return reported solubility (mole fraction); argument: `NC(=O)c1ccccc1N`
0.223

###

measurement-context: in ethyl acetate, 313.75 K
value-kind: solubility (mole fraction)
Numbers only.

Return reported solubility (mole fraction); argument: `NC(=O)c1ccccc1N`
0.134

###

measurement-context: in n-pentanol, 317.15 K
value-kind: solubility (mole fraction)
Answers are plain numbers.

Return reported solubility (mole fraction); argument: `NC(=O)c1ccccc1N`
0.0579

###

measurement-context: in methyl acetate, 289.15 K
value-kind: solubility (mole fraction)
One number for each entry.

Return reported solubility (mole fraction); argument: `NC(=O)c1ccccc1N`
0.0892

###

measurement-context: in acetone, 289.15 K
value-kind: solubility (mole fraction)
Numbers only.

Return reported solubility (mole fraction); argument: `NC(=O)c1ccccc1N`
0.208

###

measurement-context: in n-pentanol, 324.15 K
value-kind: solubility (mole fraction)

Return reported solubility (mole fraction); argument: `NC(=O)c1ccccc1N`
0.0703

###

measurement-context: in ethanol, 324.15 K
value-kind: solubility (mole fraction)
Answers are plain numbers.

Return reported solubility (mole fraction); argument: `NC(=O)c1ccccc1N`
0.143

###

measurement-context: in methyl acetate, 323.15 K
value-kind: solubility (mole fraction)
Numbers only.

Return reported solubility (mole fraction); argument: `NC(=O)c1ccccc1N`
0.208

###

measurement-context: in isobutanol, 324.15 K
value-kind: solubility (mole fraction)
One number for each entry.

Return reported solubility (mole fraction); argument: `NC(=O)c1ccccc1N`
0.0629

###

measurement-context: in THF, 309.15 K
value-kind: solubility (mole fraction)

Return reported solubility (mole fraction); argument: `NC(=O)c1ccccc1N`
0.296

###

measurement-context: in n-butanol, 289.15 K
value-kind: solubility (mole fraction)
One number for each entry.

Return reported solubility (mole fraction); argument: `NC(=O)c1ccccc1N`
0.0268

###

measurement-context: in acetonitrile, 273.15 K
value-kind: solubility (mole fraction)
Answers are plain numbers.

Return reported solubility (mole fraction); argument: `NC(=O)c1ccccc1N`
0.01

###

measurement-context: in n-hexanol, 323.15 K
value-kind: solubility (mole fraction)
Answers are plain numbers.

Return reported solubility (mole fraction); argument: `NC(=O)c1ccccc1N`
0.0641

###

measurement-context: in ethanol, 273.15 K
value-kind: solubility (mole fraction)

Return reported solubility (mole fraction); argument: `NC(=O)c1ccccc1N`
0.0302

###

measurement-context: in n-octanol, 293.25 K
value-kind: solubility (mole fraction)
Answers are plain numbers.

Return reported solubility (mole fraction); argument: `NC(=O)c1ccccc1N`
0.0235

###

measurement-context: in methanol, 308.65 K
value-kind: solubility (mole fraction)
Numbers only.

Return reported solubility (mole fraction); argument: `NC(=O)c1ccccc1N`
0.148

###

measurement-context: in isopentanol, 308.15 K
value-kind: solubility (mole fraction)

Return reported solubility (mole fraction); argument: `NC(=O)c1ccccc1N`
0.0391

###

measurement-context: in isobutanol, 293.35 K
value-kind: solubility (mole fraction)
Numbers only.

Return reported solubility (mole fraction); argument: `NC(=O)c1ccccc1N`
0.0211

###

measurement-context: in n-propanol, 308.65 K
value-kind: solubility (mole fraction)

Return reported solubility (mole fraction); argument: `NC(=O)c1ccccc1N`
0.0626

###

measurement-context: in acetone, 303.35 K
value-kind: solubility (mole fraction)

Return reported solubility (mole fraction); argument: `NC(=O)c1ccccc1N`
0.265
